Data credit: patent US20250339569A1

List of t1/2 (half-life of the complex, SPR) values.
Target: Fc-fusion protein of human carbonic anhydrase IX (human, UniProt Q16790 38-414)
Assay: SPR, captured hCAIX-Fc; t1/2 category B: 5.1-15.0 min
Starred links: 1 amine or outer side, 2 acyl side, 3 side chain; linkers in the order of their positions; H or OH if unused. Positions of bridges follow the written chain, without caps; N, C: chain ends. Non-standard residues stand in square brackets, D forms with d. Primed or numbered codes have the meaning given here. *: point of attachment. Af3(Ac-Asp) = 3-aminophenylalanine acylated on the ring amine with N-acetyl-aspartic acid; APAc″ = 2-(4-(amino)piperidin-1-yl)acetic acid, NC1CCN(CC(=O)*)CC1; DOTA = O=C(O)CN1CCN(CC(=O)O)CCN(CC(=O)*)CCN(CC(=O)O)CC1; mXylylene = c1cc(C[*:1])cc(C[*:2])c1; Orn(Me2) = CN(C)CCC[C@H](N)C(=O)O; APAc = not defined here
measurement-kind: t1/2 (half-life of the complex, SPR)

1. {DOTA-APAc″}-VYCE[dP]D[Af3(Ac-Asp)]LTWSC-NH2 (linker 3-12 via mXylylene) [3BP-4363]; 5.1 to 15 min
2. {DOTA-APAc}-VYCE[dP]DWLTWRC-NH2 (linker 3-12 via mXylylene; reading uncertain) [3BP-3599]; 5.1 to 15 min
3. {DOTA-APAc}-V[Orn(Me2)]CE[dP]DWLTWSC-NH2 (linker 3-12 via mXylylene; reading uncertain) [3BP-4095]; 5.1 to 15 min
